# Tested on: S. aureus
# experiment: Minimum inhibitory concentrations (MICs) for S. aureus of exemplary compounds (Table 2)
# Type: cell-based
# test-settings: Staphylococcus aureus, minimum inhibitory concentrations for S. aureus; read-out: MICs
quantity-kind: MIC (µg/mL)
Answers are plain numbers, in µg/mL.

Worked set:
>>> df
                                   compound  quantity_kind  reported_measurement
0  CC(=O)NC[C@H]1CN(c2ccc(-c3ccc(CN4CCN(CC#N)CC4)c(F)c3)c(F)c2)C(=O)O1            MIC                     2
1  CC(=O)NC[C@H]1CN(c2ccc(-c3ccc([C@H](O)CNCc4ccccc4)cc3)c(F)c2)C(=O)O1            MIC                     4
2  CC(=O)NC[C@H]1CN(c2ccc(-c3ccc([C@H](CO)NCc4c(C)nc(O)nc4O)cc3)c(F)c2)C(=O)O1            MIC                    64

Attention now shifts to the item below.
Task: Respond only with MIC recorded for CC(=O)NC[C@H]1CN(c2ccc(-c3ccc(C[S+]([O-])c4nc(C)cs4)cc3)c(F)c2)C(=O)O1 (stereo partly shown)
Output: 1

---

# Test system: S. aureus
# experiment: Minimum inhibitory concentrations (MICs) for S. aureus of exemplary compounds (Table 2)
# Type: cell-based
# test-settings: Staphylococcus aureus, minimum inhibitory concentrations for S. aureus; read-out: MICs
Please respond with reported log10(MIC) for every item in the list.
Heads up: the numbers are on a log10 scale; they represent MIC in µg/mL.

                                   molecule  system_name  quantity_kind  reported_measurement
0  CC(=O)NC[C@H]1CN(c2ccc(-c3ccc(CNC(=O)c4ccc5cc[nH]c5c4)cc3)c(F)c2)C(=O)O1    S. aureus     log10(MIC)                  0.00
1  CC(=O)NC[C@H]1CN(c2ccc(-c3ccc(C(=O)NCc4ncsn4)cc3)c(F)c2)C(=O)O1    S. aureus     log10(MIC)                  0.00
2  CC(=O)NC[C@H]1CN(c2ccc(-c3ccc(CNCCCc4cnn[nH]4)cc3)c(F)c2)C(=O)O1    S. aureus     log10(MIC)                  0.60
3  CC(=O)NC[C@H]1CN(c2ccc(-c3ccc(CNCc4nccs4)cc3)c(F)c2)C(=O)O1    S. aureus     log10(MIC)                  0.00
4  CC(=O)NC[C@H]1CN(c2ccc(-c3ccc(Cn4nnnc4C)cc3)c(F)c2)C(=O)O1    S. aureus     log10(MIC)                 -0.30

Look up log10(MIC) for the entries below, preserving their order.
1. CC(=O)NC[C@H]1CN(c2ccc(-c3ccc(CS(=O)(=O)NCc4ccccc4)cc3)c(F)c2)C(=O)O1
2. CC(=O)NC[C@H]1CN(c2ccc(-c3ccc(CNC(=O)c4cnc5ccccc5c4)cc3)c(F)c2)C(=O)O1
3. CC(=O)NC[C@H]1CN(c2ccc(-c3ccc(CNCc4ccncc4)nc3)c(F)c2)C(=O)O1
4. CC(=O)NC[C@H]1CN(c2ccc(-c3ccc(CN(C)Cc4c(C)nc(O)nc4O)cc3)c(F)c2)C(=O)O1

Output:
[2.11, 1.51, 0.30, 0.60]

Look up log10(MIC) for the entries below, preserving their order.
1. CC(=O)NC[C@H]1CN(c2ccc(-c3ccc(CN(C)Cc4ccoc4)cc3)c(F)c2)C(=O)O1
2. CC(=O)NC[C@H]1CC(c2ccc(-c3ccc(CNCc4ccncc4)cc3)cc2)=NO1
3. CC(=O)NC[C@H]1CN(c2ccc(-c3ccc(CNCc4n[nH]c(=O)[nH]4)cc3)c(F)c2)C(=O)O1
4. CC(=O)NC[C@H]1CN(c2ccc(-c3ccc(Cn4cc(C(=O)O)cn4)cc3)c(F)c2)C(=O)O1
5. CC(=O)NC[C@H]1CN(c2ccc(-c3ccc(CNCCc4scnc4C)cc3)c(F)c2)C(=O)O1
6. CC(=O)NC[C@H]1CN(c2ccc(-c3ccc(CNCC4CCNC4)cc3)c(F)c2)C(=O)O1 (mixture of isomers)

Output:
1. 0.60
2. 0.60
3. 0.90
4. 0.00
5. 0.60
6. 0.60
